molecular target: AarF domain-containing protein kinase 1 (Homo sapiens, UniProt Q86TW2); further: in the data inactive means no Kd found up to 30 µM
Sequence (Q86TW2 whole entry, the tested form may be a part): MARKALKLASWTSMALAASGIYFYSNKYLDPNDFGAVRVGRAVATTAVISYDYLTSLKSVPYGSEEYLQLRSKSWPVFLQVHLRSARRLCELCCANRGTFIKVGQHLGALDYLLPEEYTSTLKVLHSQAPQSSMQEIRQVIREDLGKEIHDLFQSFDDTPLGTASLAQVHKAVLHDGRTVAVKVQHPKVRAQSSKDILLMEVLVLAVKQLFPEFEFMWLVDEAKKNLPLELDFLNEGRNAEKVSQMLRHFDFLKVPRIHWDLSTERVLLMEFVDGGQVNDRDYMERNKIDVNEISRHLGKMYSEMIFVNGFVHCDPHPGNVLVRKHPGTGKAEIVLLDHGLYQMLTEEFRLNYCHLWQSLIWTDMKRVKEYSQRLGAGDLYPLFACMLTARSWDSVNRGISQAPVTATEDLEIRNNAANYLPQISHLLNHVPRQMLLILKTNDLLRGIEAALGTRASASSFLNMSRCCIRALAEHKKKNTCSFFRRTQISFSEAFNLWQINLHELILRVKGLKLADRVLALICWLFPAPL
Active and inactive are the calls of the source.
Answer with one of the outcomes given here: YES = active, NO = inactive

[[record]]
compound = "N#CC1(c2ccc(NC(=O)c3cccnc3NCc3ccncc3)cc2)CCCC1"
class_name = "NO"

[[record]]
compound = "COc1ccc(S(=O)(=O)N(C(C)=O)c2ccccc2/C=C/c2cc[n+]([O-])cc2)cc1"
class_name = "NO"

[[record]]
compound = "COc1cc(Nc2ncc3c(n2)-c2ccc(Cl)cc2C(c2c(F)cccc2OC)=NC3)ccc1C(=O)O"
class_name = "NO"


Just curious, what result did `COCC(=O)NC/C=C/c1ccc2ncnc(Nc3ccc(Oc4ccc(C)nc4)c(C)c3)c2c1` get here?
NO

Just curious, what result did `O=C(Nc1nc2cccc(-c3ccc(CN4CCS(=O)(=O)CC4)cc3)n2n1)C1CC1` get here?
YES

Just curious, what result did `Cn1cc(-c2cnn3c(N)c(Br)c([C@@H]4CCCNC4)nc23)cn1` get here?
NO

Just curious, what result did `Cc1nc(NC(=O)N2CCC[C@H]2C(N)=O)sc1-c1ccnc(C(C)(C)C(F)(F)F)c1` get here?
NO

Just curious, what result did `Cc1csc(-c2nnc(Nc3ccc(Oc4ncccc4-c4ccnc(N)n4)cc3)c3ccccc23)c1` get here?
NO

* * *

molecular target: Dual specificity mitogen-activated protein kinase kinase 5 (Homo sapiens); further: in the data inactive means no Kd found up to 30 µM
Sequence (Q13163 whole entry): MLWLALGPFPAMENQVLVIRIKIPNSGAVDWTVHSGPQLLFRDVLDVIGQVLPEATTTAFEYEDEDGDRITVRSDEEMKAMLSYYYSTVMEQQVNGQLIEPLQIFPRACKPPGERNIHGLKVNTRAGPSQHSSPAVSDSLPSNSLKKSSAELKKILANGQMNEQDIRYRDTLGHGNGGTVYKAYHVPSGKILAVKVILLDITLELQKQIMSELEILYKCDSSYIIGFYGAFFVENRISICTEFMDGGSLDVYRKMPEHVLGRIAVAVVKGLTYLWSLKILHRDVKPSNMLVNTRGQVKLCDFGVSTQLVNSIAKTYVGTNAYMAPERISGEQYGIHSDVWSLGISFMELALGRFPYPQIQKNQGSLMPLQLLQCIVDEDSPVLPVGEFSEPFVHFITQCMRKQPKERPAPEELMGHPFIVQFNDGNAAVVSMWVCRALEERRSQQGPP
The source made the active and inactive calls.
Answer with one of the outcomes given here: active, inactive

Worked examples, 3 compounds total:
[[record]]
compound = "CC(C)(C)c1nc(-c2cccc(NS(=O)(=O)c3c(F)cccc3F)c2F)c(-c2ccnc(N)n2)s1"
class_name = "active"

[[record]]
compound = "NC(=O)c1c(OCc2c(F)cc(Br)cc2F)nsc1NC(=O)NCCCCN1CCCC1"
class_name = "inactive"

[[record]]
compound = "Cc1[nH]c(/C=C2\\C(=O)Nc3ccccc32)c(C)c1CCC(=O)O [ORANTINIB]"
class_name = "active"


Just curious, what result did `Cc1csc(-c2nnc(Nc3ccc(Oc4ncccc4-c4ccnc(N)n4)cc3)c3ccccc23)c1` get here?
inactive

* * *

molecular target: Bone morphogenetic protein receptor type-2 (Homo sapiens, UniProt Q13873); further: in the data inactive means no Kd found up to 30 µM
Sequence (Q13873 whole entry): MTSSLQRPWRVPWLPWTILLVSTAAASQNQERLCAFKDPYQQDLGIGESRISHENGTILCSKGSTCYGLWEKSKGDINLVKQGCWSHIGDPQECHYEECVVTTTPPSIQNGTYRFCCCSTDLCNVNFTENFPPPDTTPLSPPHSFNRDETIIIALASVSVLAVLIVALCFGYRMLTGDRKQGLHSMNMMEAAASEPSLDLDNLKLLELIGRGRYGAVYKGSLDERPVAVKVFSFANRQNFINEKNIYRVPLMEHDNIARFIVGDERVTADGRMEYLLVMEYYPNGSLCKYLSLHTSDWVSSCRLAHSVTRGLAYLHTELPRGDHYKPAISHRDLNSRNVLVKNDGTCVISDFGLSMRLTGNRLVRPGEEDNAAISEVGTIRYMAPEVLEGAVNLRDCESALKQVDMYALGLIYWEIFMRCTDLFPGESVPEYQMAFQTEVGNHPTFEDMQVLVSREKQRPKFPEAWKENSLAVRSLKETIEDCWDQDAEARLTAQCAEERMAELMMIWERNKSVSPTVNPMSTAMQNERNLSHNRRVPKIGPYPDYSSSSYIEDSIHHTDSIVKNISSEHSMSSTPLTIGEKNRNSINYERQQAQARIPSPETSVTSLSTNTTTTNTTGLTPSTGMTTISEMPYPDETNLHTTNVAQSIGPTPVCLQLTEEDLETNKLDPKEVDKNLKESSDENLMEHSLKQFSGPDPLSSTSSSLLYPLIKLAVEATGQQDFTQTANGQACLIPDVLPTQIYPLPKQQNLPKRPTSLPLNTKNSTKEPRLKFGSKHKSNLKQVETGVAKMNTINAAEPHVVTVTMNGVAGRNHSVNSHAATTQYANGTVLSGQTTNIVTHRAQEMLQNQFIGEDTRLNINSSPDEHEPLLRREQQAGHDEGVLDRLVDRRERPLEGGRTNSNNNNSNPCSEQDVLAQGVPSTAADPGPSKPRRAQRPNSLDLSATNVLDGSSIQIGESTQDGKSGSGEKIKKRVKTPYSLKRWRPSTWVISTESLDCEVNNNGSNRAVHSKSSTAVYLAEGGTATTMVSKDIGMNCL
Calls of active or inactive are those of the source.
Answer with one of the outcomes given here: YES = active, NO = inactive

Worked examples, 3 compounds total:
[[record]]
compound_smiles = "CO[C@H]1C[C@@H]2CC[C@@H](C)[C@@](O)(O2)C(=O)C(=O)N2CCCC[C@H]2C(=O)O[C@H]([C@H](C)C[C@@H]2CC[C@@H](O)[C@H](OC)C2)CC(=O)[C@H](C)/C=C(\\C)[C@@H](O)[C@@H](OC)C(=O)[C@H](C)C[C@H](C)/C=C/C=C/C=C/1C"
tgt = "Bone morphogenetic protein receptor type-2 (Homo sapiens, UniProt Q13873)"
class_name = "NO"

[[record]]
compound_smiles = "COc1cc2ncnc(Oc3cccc(NC(=O)Nc4cc(C(C)(C)C(F)(F)F)on4)c3)c2cc1OC"
tgt = "Bone morphogenetic protein receptor type-2 (Homo sapiens, UniProt Q13873)"
class_name = "NO"

[[record]]
compound_smiles = "NC(=O)c1c(OCc2c(F)cc(Br)cc2F)nsc1NC(=O)NCCCCN1CCCC1"
tgt = "Bone morphogenetic protein receptor type-2 (Homo sapiens, UniProt Q13873)"
class_name = "NO"


Just curious, what result did `CN(C[C@@H]1COCCO1)S(=O)(=O)Nc1ccc2ccc3ncc(-c4cnn(C)c4)cc3c(=O)c2c1` get here?
NO

Just curious, what result did `Cn1cnc2c(F)c(Nc3ccc(Br)cc3F)c(C(=O)NOCCO)cc21` get here?
NO

Just curious, what result did `Nc1ncnc2c1c(-c1cccc(OCc3ccccc3)c1)cn2[C@H]1C[C@@H](CN2CCC2)C1` get here?
NO

Just curious, what result did `O=C(Cc1ccc(-c2ccc(OCCN3CCOCC3)cc2)cn1)NCc1ccccc1` get here?
NO

Just curious, what result did `COc1c(OCCCN2CCOCC2)ccc2c1N=C(NC(=O)c1cnc(N)nc1)N1CCN=C21` get here?
NO

Just curious, what result did `COCc1c(-c2ccc(NC(=O)Nc3cc(C(F)(F)F)ccc3F)c(F)c2)c2c(N)ncnn2c1CN1CCOCC1` get here?
NO

Just curious, what result did `O=C(Nc1c[nH]nc1-c1nc2cc(CN3CCOCC3)ccc2[nH]1)NC1CC1` get here?
YES

Just curious, what result did `COc1cc(Nc2ncc3c(n2)-c2ccc(Cl)cc2C(c2c(F)cccc2OC)=NC3)ccc1C(=O)O` get here?
NO

Just curious, what result did `O=C(Nc1cc(C(F)(F)F)cc(C(F)(F)F)c1)c1cc(Cl)ccc1O` get here?
NO

Just curious, what result did `Cc1cc(Nc2ncc(Cl)c(Nc3ccccc3S(=O)(=O)C(C)C)n2)c(OC(C)C)cc1C1CCNCC1` get here?
NO

Where these numbers come from: ChEMBL document CHEMBL3991601
